Assay: Cytotoxicity, CellTiter-Blue Cell Viability Assay
Conditions: African green monkey

compound	readout.relation	CC50 / µM
COc1cc(O)ccc1/C=C/C(=O)c1ccc(O)cc1	=	158
C=C1CC[C@@H]2[C@](C)(CO)[C@H](O)CC[C@@]2(C)[C@@H]1C/C=C1/C(=O)OC[C@H]1O [andrographolide]	=	95.8
CCN(CCO)CCCC(C)Nc1ccnc2cc(Cl)ccc12 (centres unmarked) [hydroxychloroquine]	=	60.3
CCC(CC)COC(=O)[C@H](C)N[P@](=O)(OC[C@H]1O[C@@](C#N)(c2ccc3c(N)ncnn23)[C@H](O)[C@@H]1O)Oc1ccccc1	>	25
C=C1C(=O)O[C@@]23[C@H]1CC[C@@H](C)[C@@H]2CC[C@@]1(C)O[C@@H]31	=	111

###

Experiment: in vitro
Conditions: African green monkey
outcome.measure: CC50

molecule	obs.value
CCN(CC)CCCC(C)Nc1ccnc2cc(Cl)ccc12 (stereo not shown)	> 50 µM

###

// reported EC50 for each item listed
Tested on: GX_P2V
Experiment: microbe, parasite or virus in culture
Assay type: cell-based, Pangolin coronavirus
Conditions: Pangolin coronavirus, Vero C1008, 72 h

molecule	assay.system	EC50
CCN(CCO)CCCC(C)Nc1ccnc2cc(Cl)ccc12 (stereo not shown) [hydroxychloroquine]	GX_P2V	6.59 µM
CO[C@H]1O[C@@H]2O[C@@]3(C)CC[C@H]4[C@H](C)CC[C@@H]([C@H]1C)[C@@]24OO3 [artemether, reference compound]	GX_P2V	3.7 µM
Cc1c(O)cccc1C(=O)N[C@@H](CSc1ccccc1)[C@H](O)CN1C[C@H]2CCCC[C@H]2C[C@H]1C(=O)NC(C)(C)C [nelfinavir]	GX_P2V	6.71 µM
C[C@H]1[C@H](OC(=O)CCC(=O)O)O[C@@H]2O[C@@]3(C)CC[C@H]4[C@H](C)CC[C@@H]1[C@@]24OO3 [artesunate, reference compound]	GX_P2V	10.1 µM
CCN(CC)CCCC(C)Nc1ccnc2cc(Cl)ccc12 (stereo not shown) [chloroquine]	GX_P2V	12.8 µM
COc1cc(O)ccc1/C=C/C(=O)c1ccc(O)cc1 [echinatin]	GX_P2V	20.9 µM
CCC(CC)COC(=O)[C@H](C)N[P@](=O)(OC[C@H]1O[C@@](C#N)(c2ccc3c(N)ncnn23)[C@H](O)[C@@H]1O)Oc1ccccc1 [remdesivir]	GX_P2V	0.74 µM

###

Test: Cytotoxicity, CellTiter-Blue Cell Viability Assay
Details: African green monkey, Vero E6 cells
outcome.measure: CC50 (µM)

compound	outcome.measure	unit	readout.relation	obs.value
C[C@H]1[C@H](OC(=O)CCC(=O)O)O[C@@H]2O[C@@]3(C)CC[C@H]4[C@H](C)CC[C@@H]1[C@@]24OO3 [artesunate, reference compound]	CC50	µM	=	127
C=C1C(=O)O[C@@]23[C@H]1CC[C@@H](C)[C@@H]2CC[C@@]1(C)O[C@@H]31 [arteannuin B]	CC50	µM	=	117
CO[C@H]1O[C@@H]2O[C@@]3(C)CC[C@H]4[C@H](C)CC[C@@H]([C@H]1C)[C@@]24OO3 [artemether, reference compound]	CC50	µM	>	200
COc1cc(O)ccc1/C=C/C(=O)c1ccc(O)cc1 [echinatin]	CC50	µM	=	120
C=C1CC[C@@H]2[C@](C)(CO)[C@H](O)CC[C@@]2(C)[C@@H]1C/C=C1/C(=O)OC[C@H]1O [andrographolide]	CC50	µM	=	95.7
